- System: Apis cernan
- assay.method.text: Toxicity test on adult worker bees of Apis cernan, small beaker method
- Assay type: in vivo
- reported.conditions: 500 ppm, 48 hours
Could you label it MET if measured Toxicity determination Apis cernan Mortality (%) is 4% or higher, and NOT MET otherwise?

Worked examples, 3 molecules total:
molecule: CC(=O)N1c2c(Br)c(C#N)nn2-c2ccccc2C1(C)C
category.label: MET

molecule: CC1(C)Nc2c(C#N)c(SCc3ccccc3)nn2-c2cnc(F)nc21
category.label: NOT MET

molecule: CSc1nn2c(c1C(=O)N1CCN(C)CC1)NC(F)(C(F)(F)F)c1ccccc1-2 (stereo not drawn)
category.label: MET

Given `COc1ccc(-c2cn3c(c2C(C)=O)NC(C(N)=O)(C(N)=O)c2ccc([N+](=O)[O-])cc2-3)cc1` , state whether its Toxicity determination Apis cernan Mortality (%) is at least 4%. NOT MET

Then what about the molecule C=CC1Nc2cc(C#N)nn2-c2c(Cl)cc(C(F)(F)F)cc21 (stereo not drawn) ? NOT MET

Same question for `CC1(C)Nc2cc(C#N)nn2-c2ccccc21` please. MET

How about `COc1ccc(-c2cn3c(c2C(C)=O)NC(C#N)(C#N)c2ccc([N+](=O)[O-])cc2-3)cc1` ? NOT MET

Repeat for the following molecule: `CCOC(=O)c1c(SC)nn2c1NC(C)(C)c1nc(F)ncc1-2` MET

The measured values listed here are drawn from patent US11401271B2.
